These entries and their values trace back to paper PMC4855620.

biological target: HumRadA2 (humanised, monomeric RadA from Pyrococcus furiosus) (Pyrococcus furiosus) (UniProt O74036); test: ITC; peptide (2.5-5 mM) titrated into HumRadA2 (64-83 μM) at 25 °C, MicroCal iTC200, 200 mM Tris pH 7.5, 100 mM NaCl; single-site model, stoichiometry fixed as 1.0 for weak-binding ligands; low c-value conditions
The threshold is -4 kcal/mol. Values of dH beneath it are tagged 1; values meeting or exceeding it are tagged 0.

# binder, label_value
measured = [
    ("Ac-FHPA-NH2 [FHPA tetrapeptide]", 0),
    ("Ac-FHAA-NH2 [FHAA tetrapeptide]", 1),
]

In: Dear colleague, could you confirm whether dH of Ac-WHTA-NH2 [WHTA tetrapeptide] falls below -4 kcal/mol? Thanks.
Out: 0

In: How about this binder: Ac-FHTG-NH2 [FHTG tetrapeptide]
Out: 1

In: Can you check Ac-WHPA-NH2 [WHPA tetrapeptide] next?
Out: 1

In: Now consider Ac-FHTA-NH2 [FHTA tetrapeptide (FxxA motif of BRC4 of BRCA2)] and answer again.
Out: 0
